Source: ChEMBL document CHEMBL1909046

# system_under_test: D(3) dopamine receptor (Homo sapiens)
# Sequence (P35462 whole entry): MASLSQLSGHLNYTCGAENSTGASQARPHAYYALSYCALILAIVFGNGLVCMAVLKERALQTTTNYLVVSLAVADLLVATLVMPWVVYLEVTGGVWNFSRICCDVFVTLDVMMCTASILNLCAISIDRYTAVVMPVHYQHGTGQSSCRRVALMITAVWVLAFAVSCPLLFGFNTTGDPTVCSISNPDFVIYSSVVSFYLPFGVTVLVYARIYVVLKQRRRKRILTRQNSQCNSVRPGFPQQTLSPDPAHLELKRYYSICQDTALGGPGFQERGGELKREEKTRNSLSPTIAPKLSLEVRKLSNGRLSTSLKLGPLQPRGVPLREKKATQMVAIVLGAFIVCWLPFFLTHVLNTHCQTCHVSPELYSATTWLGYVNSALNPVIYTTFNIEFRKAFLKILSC
# experimental_protocol: DRUGMATRIX: Dopamine D3 radioligand binding (ligand: [3H] Spiperone)
# Format: cell membranes, CHO, Membrane
# applied_conditions: read-out: Ki
Rule: measured Ki below 0.001 µM gets Yes; anything equal to or greater than 0.001 µM gets No.

>>> group("CC(C)N1CCN(c2ccc(OCC3COC(Cn4cncn4)(c4ccc(Cl)cc4Cl)O3)cc2)CC1 (configuration not stated)")
"No"
>>> group("CC[C@@H](CO)NC(=O)[C@@H]1C=C2c3cccc4[nH]cc(c34)C[C@H]2N(C)C1")
"No"
>>> group("O=C(CCCN1CC=C(n2c(=O)[nH]c3ccccc32)CC1)c1ccc(F)cc1")
"Yes"
>>> group("CC(C)[C@@]1(NC(=O)[C@@H]2C[C@@H]3c4cccc5[nH]cc(c45)C[C@H]3N(C)C2)O[C@@]2(O)[C@@H]3CCCN3C(=O)[C@H](Cc3ccccc3)N2C1=O.CS(=O)(=O)O [DIHYDROERGOCRISTINE MESYLATE]")
"Yes"
>>> group("CC/C(=C(\\c1ccccc1)c1ccc(OCCN(C)C)cc1)c1ccccc1")
"No"
>>> group("CN(C)CCCN1c2ccccc2Sc2ccccc21")
"No"

====

# experimental_protocol: DRUGMATRIX: Calcium Channel Type L, Dihydropyridine radioligand binding (ligand: [3H] Nitrendipine)
# Type: cell membranes, Rattus norvegicus, Wistar, Cerebral cortex, Membrane
# applied_conditions: Not Active = under 50% inhibition at 10 µM
readout_type: IC50

>>> recorded_value("C[C@H](CS)C(=O)N1CCC[C@H]1C(=O)O")
"Not Active"
>>> recorded_value("C[C@]12CCC(=O)C=C1CC[C@@H]1[C@@H]2CC[C@@]2(C)[C@H]1CC[C@]2(C)O")
"Not Active"
>>> recorded_value("CC[C@]1(O)C[C@H]2CN(CCc3c([nH]c4ccccc34)[C@@](C(=O)OC)(c3cc4c(cc3OC)N(C=O)[C@H]3[C@@](O)(C(=O)OC)[C@H](OC(C)=O)[C@]5(CC)C=CCN6CC[C@]43[C@@H]65)C2)C1")
"Not Active"

====

Each entry below carries its reported pIC50.
# system_under_test: Tyrosine-protein kinase Lck (Homo sapiens, UniProt P06239)
# Sequence (P06239 whole entry): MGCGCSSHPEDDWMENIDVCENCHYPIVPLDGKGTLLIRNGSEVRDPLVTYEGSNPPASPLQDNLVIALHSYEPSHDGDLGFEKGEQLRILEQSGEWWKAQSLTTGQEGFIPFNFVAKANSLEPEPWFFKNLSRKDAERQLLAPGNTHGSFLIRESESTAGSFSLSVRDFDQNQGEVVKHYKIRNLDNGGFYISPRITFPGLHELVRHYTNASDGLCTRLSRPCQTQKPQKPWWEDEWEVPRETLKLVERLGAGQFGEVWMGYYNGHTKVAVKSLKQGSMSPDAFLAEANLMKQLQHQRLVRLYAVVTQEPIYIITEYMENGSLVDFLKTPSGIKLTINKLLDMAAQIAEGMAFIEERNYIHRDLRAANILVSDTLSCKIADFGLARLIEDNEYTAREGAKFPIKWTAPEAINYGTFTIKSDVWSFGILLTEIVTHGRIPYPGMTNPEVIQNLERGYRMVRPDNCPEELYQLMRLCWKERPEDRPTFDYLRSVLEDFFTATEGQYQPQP
# experimental_protocol: DRUGMATRIX: Protein Tyrosine Kinase, LCK enzyme inhibition (substrate: Poly(Glu:Tyr))
# Type: cell-based, Insect cells
# applied_conditions: Not Active = under 50% inhibition at 10 µM; read-out: IC50
pIC50: −log10 of the molar value.
readout_type: pIC50

>>> recorded_value("N[C@@H](Cc1ccc(O)c(O)c1)C(=O)O")
5.43
>>> recorded_value("CC/C(=C(\\c1ccccc1)c1ccc(OCCN(C)C)cc1)c1ccccc1")
5.10
>>> recorded_value("Cc1cc(C(C#N)c2ccc(Cl)cc2)c(Cl)cc1NC(=O)c1cc(I)cc(I)c1O (centres undefined)")
5.90
>>> recorded_value("Cc1ccc2cc3c(ccc4ccccc43)c3c2c1CC3")
4.26

====

# system_under_test: Epidermal growth factor receptor (Homo sapiens, UniProt P00533)
# experimental_protocol: DRUGMATRIX: Protein Tyrosine Kinase, EGF Receptor enzyme inhibition (substrate: Poly(Glu:Tyr))
# Type: cell-based, Insect cells
# applied_conditions: insect cells; Not Active = under 50% inhibition at 10 µM; read-out: IC50
pIC50: −log10 of the molar value.
readout_type: pIC50

>>> recorded_value("CADMIUM ACETATE")
6.61
>>> recorded_value("LIPOPOLYSACCHARIDE E. COLI O55:B5")
6.73
